B1: Pistol ribozyme (parent)
chain: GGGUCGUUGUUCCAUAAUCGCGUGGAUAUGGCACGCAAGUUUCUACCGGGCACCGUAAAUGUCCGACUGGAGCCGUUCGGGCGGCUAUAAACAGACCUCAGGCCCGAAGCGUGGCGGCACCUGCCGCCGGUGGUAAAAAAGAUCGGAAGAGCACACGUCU

Variants of: B1
Assay: aptazyme ON/OFF ratio, guanine; higher = stronger switching; co-transcriptional cleavage with and without guanine
assay metric: aptazyme ON/OFF ratio
Give bare numbers.

Working through the 2 variants below one at a time, give aptazyme ON/OFF ratio for each.
1. U7G U8G U10G U11C C12A C13G
2. G9C U10C U11C C12U C13G

Out:
[1.3, 1.01]

Working through the 5 variants below one at a time, give aptazyme ON/OFF ratio for each.
1. U8A G9A U10G U11G C12G
2. U7G U8G G9U U10G U11A C12U C13A
3. U7G U8C G9U U11C C12A C13G
4. U7C G9U U10G U11G C12A C13G
5. U7A U8A U10C U11A C12A C13G

Out:
1: 1.26; 2: 1.1; 3: 1.32; 4: 1.1; 5: 1.18
